Test system: MRC-5 cells
test protocol: Toxicity XTT in MRC-5 (229E cytoprotection assay)
test context: read-out: CoV229E - TC50; MRC-5; XTT; 6 days
metric: CC50

Worked examples follow.
{"columns": ["molecule", "CC50"],
 "data": [
  ["O=[N+]([O-])c1cccc2c1nc(-c1ccc(F)cc1)n2Cc1ccc(OCCN2CCCCC2)cc1 [MCAA-13]", "> 5 µM"],
  ["Fc1ccc(-c2cc3sccc3n2Cc2ccc(OCCC3CCCCC3)cc2)cc1 [MCAA-07]", "> 5 µM"]
]}

# CC50 lookup, item O=C(O)c1ccc(-c2c(CC3CCCC3)c3ccc(F)cc3n2Cc2ccc(OCCC3CCCCC3)cc2)cc1 [MCAA-03]
2.47 µM

# CC50 lookup, item Nc1cccc2nc(-c3ccc(F)cc3)n(Cc3ccc(OCCN4CCCCC4)cc3)c12 [MCAA-08]
> 5 µM
